- System: Acinetobacter baumannii ATCC17978
- METHOD: Antimicrobial susceptibility testing: 90% growth inhibitory concentration (IC90) determination, Iso-Sensitest broth, OD 600 nm
- Format: cell-based
- RUN_PARAMETERS: Acinetobacter baumannii, ATCC17978, 16 h, 90% growth inhibitory concentration, Acinetobacter baumannii ATCC17978, Iso-Sensitest broth, OD 600 nm over 16 h; read-out: ATCC 17978 IC90
Structures can show the parent of a compound that is named as a salt.
ASSAY_METRIC: IC90 (nM)

Check out these entries, answers already filled in.
q: Given "COc1ccc(-c2cnc3c(Nc4ccc(C(=O)NCCOCCN(C)C)c(Cl)c4)nccn23)c(F)c1F" , respond with its IC90.
a: 120

q: Given "COc1ccc(-c2cnc3c(Nc4ccc(C(=O)NCCOCCCl)c(C)c4)nccn23)cc1" , respond with its IC90.
a: 630

q: Given "Cc1cc(Nc2nccn3c(-c4ccc(OCC#CCN)c(F)c4F)cnc23)ccc1C(=O)NCCOCCN" , respond with its IC90.
a: 430

1: Cc1cc(Nc2nccn3c(-c4ccc(OC(F)F)cc4)cnc23)ccc1C(=O)NCCOCC(N)=O
2: CCc1cc(Nc2nccn3c(-c4ccc(OC(F)F)c(F)c4F)cnc23)ccc1C(=O)NCCNCCO [Example 174, hydrochloride]
3: COc1ccc(-c2cnc3c(Nc4ccc(C(=O)NCCNCCC[C@H](N)C(=O)O)c(C)c4)nccn23)c(F)c1F
4: Cc1cc(Nc2nccn3c(-c4ccc(OC(F)F)c(F)c4)cnc23)ccc1C(=O)NCCOCCN [Example 97, hydrochloride]
q: Sort the compounds on IC90; start with the lowest figure. Output spec: a listing of the labels in the requested order.
a: 1, 4, 2, 3

---

- Test system: Acinetobacter baumannii ATCC17978
- METHOD: Antimicrobial susceptibility testing: 90% growth inhibitory concentration (IC90) determination, Iso-Sensitest broth, OD 600 nm
- Type: cell-based
- RUN_PARAMETERS: Acinetobacter baumannii, ATCC17978, 16 h, 90% growth inhibitory concentration, Acinetobacter baumannii ATCC17978, Iso-Sensitest broth, OD 600 nm over 16 h; read-out: ATCC 17978 IC90
- Description: Antimicrobial Susceptibility Testing: 90% Growth Inhibitory Concentration (IC90) Determination The in vitro antimicrobial activity of the compounds was determined according to the following procedure: The assay used a 10-points Iso-Sensitest broth medium to measure quantitatively the in vitro activity of the compounds against Acinetobacter baumannii ATCC17978 and Acinetobacter baumannii ATCC17961. […]
Counter-ions that a name gives are not always drawn.
ASSAY_METRIC: IC90 (nM)

Check out these entries, answers already filled in.
q: Given CNCCCCNC(=O)c1ccc(Nc2nccn3c(-c4ccc(OC)c(F)c4)cnc23)cc1C [Example 161, hydrochloride] , respond with its IC90.
a: 350

q: Given "Cc1cc(Nc2nccn3c(-c4ccc(OC(F)F)cc4)cnc23)ccc1C(=O)NCCOCC(=O)NCc1nnn[nH]1" , respond with its IC90.
a: 8900

1: CCc1cc(Nc2nccn3c(-c4ccc(Cl)c(F)c4F)cnc23)ccc1C(=O)NCCSCCN
2: COc1ccc(-c2cnc3c(Nc4ccc(C(=O)N(C)CCOCCN5CC6(COC6)C5)c(C)c4)nccn23)cc1F
q: Kindly identify the item with the lower IC90 figure among these two: 1 and 2 Refer to your chosen item by its label in the answer.
a: 1
(1: 210 nM, 2: 520 nM)

I: COc1ccc(-c2cnc3c(Nc4ccc(C(=O)NCCOCC(=O)N5CCNCC5)c(C)c4)nccn23)cc1
II: Cc1cc(Nc2nccn3c(-c4ccc(OC(F)F)cc4)cnc23)ccc1C(=O)NCCOCCOCCOCCN=[N+]=[N-]
q: Which value of IC90 is greater, the one for I or the one for II ? Refer to your chosen item by its label in the answer.
a: II

---

- Test system: Acinetobacter baumannii ATCC17978
- METHOD: Antimicrobial susceptibility testing: 90% growth inhibitory concentration (IC90) determination, Iso-Sensitest broth, OD 600 nm
- Assay type: cell-based
- RUN_PARAMETERS: Acinetobacter baumannii, ATCC17978, 16 h, 90% growth inhibitory concentration, Acinetobacter baumannii ATCC17978, Iso-Sensitest broth, OD 600 nm over 16 h; read-out: ATCC 17978 IC90
Counter-ions that a name gives are not always drawn.
ASSAY_METRIC: IC90 (nM)

Check out these entries, answers already filled in.
q: Report measured IC90 on Acinetobacter baumannii ATCC17978; entry: COc1ccc(-c2cnc3c(Nc4ccc(C(=O)NCCOCCO)c(C)c4)nccn23)cc1 [Example 116]
a: 590

q: Report measured IC90 on Acinetobacter baumannii ATCC17978; entry: Cc1cc(Nc2nccn3c(-c4ccc(Cl)cc4)cnc23)ccc1C(=O)N(C)CCOCCN [Example 138, hydrochloride]
a: 960

q: Report measured IC90 on Acinetobacter baumannii ATCC17978; entry: Cc1cc(Nc2nccn3c(-c4ccc(OC(F)F)cc4)cnc23)ccc1C(=O)NCCOCCOCCOCCN [Example 17]
a: 1100

q: Report measured IC90 on Acinetobacter baumannii ATCC17978; entry: COc1ccc(-c2cnc3c(Nc4ccc(C(=O)N(C)CCOCCN5CCN(C6CC6)CC5)c(C)c4)nccn23)cc1F [Example 130]
a: 760

q: Report measured IC90 on Acinetobacter baumannii ATCC17978; entry: CCc1cc(Nc2nccn3c(-c4ccc(OC)c(F)c4F)cnc23)ccc1C(=O)NCCNCCCN [Example 188]
a: 1200

q: Report measured IC90 on Acinetobacter baumannii ATCC17978; entry: Cc1cc(Nc2nccn3c(-c4ccc(OC(F)F)cc4)cnc23)ccc1C(=O)NCCOCCN(C)C [Example 96]
a: 310

q: Report measured IC90 on Acinetobacter baumannii ATCC17978; entry: COc1ccc(-c2cnc3c(Nc4cc(F)c(C(=O)NCCOCCN)c(F)c4)nccn23)c(F)c1F [Example 59]
a: 130

q: Report measured IC90 on Acinetobacter baumannii ATCC17978; entry: Cc1cc(Nc2nccn3c(-c4ccc(OC(F)F)cc4)cnc23)ccc1C(=O)NCCOCCNC=O [Example 94]
a: 280

q: Report measured IC90 on Acinetobacter baumannii ATCC17978; entry: COc1ccc(-c2cnc3c(Nc4ccc(C(=O)N(C)CCOCCN5CCNCC5)c(Cl)c4)nccn23)cc1F [Example 163, hydrochloride]
a: 570

q: Report measured IC90 on Acinetobacter baumannii ATCC17978; entry: COC(=O)COCCOCCNC(=O)c1ccc(Nc2nccn3c(-c4ccc(OC(F)F)cc4)cnc23)cc1C [Example 156]
a: 2400

A: Cc1cc(Nc2nccn3c(-c4ccc(OC(F)F)cc4)cnc23)ccc1C(=O)NCCOCCO [Example 129]
B: CCc1cc(Nc2nccn3c(-c4ccc(OC)c(F)c4F)cnc23)ccc1C(=O)NCCCCNCC(=O)O [Example 197, hydrochloride]
q: Kindly identify the item with the lower IC90 figure among these two: A and B Refer to your chosen item by its label in the answer.
a: B

---

- System: Acinetobacter baumannii ATCC17978
- METHOD: Antimicrobial susceptibility testing: 90% growth inhibitory concentration (IC90) determination, Iso-Sensitest broth, OD 600 nm
- Assay type: cell-based
- RUN_PARAMETERS: Acinetobacter baumannii, ATCC17978, 16 h, 90% growth inhibitory concentration, Acinetobacter baumannii ATCC17978, Iso-Sensitest broth, OD 600 nm over 16 h; read-out: ATCC 17978 IC90
- Protocol: Antimicrobial Susceptibility Testing: 90% Growth Inhibitory Concentration (IC90) Determination The in vitro antimicrobial activity of the compounds was determined according to the following procedure: The assay used a 10-points Iso-Sensitest broth medium to measure quantitatively the in vitro activity of the compounds against Acinetobacter baumannii ATCC17978 and Acinetobacter baumannii ATCC17961. […]
Counter-ions that a name gives are not always drawn.
ASSAY_METRIC: IC90 (nM)

q: Given CNCCNC(=O)c1ccc(Nc2nccn3c(-c4ccc(OC)c(Cl)c4)cnc23)cc1 [Example 13, hydrochloride] , respond with its IC90.
a: 4200

q: Given "COc1ccc(-c2cnc3c(Nc4ccc(C(=O)NCCOCCNCC(F)F)c(C)c4)nccn23)cc1" , respond with its IC90.
a: 450

P: COc1ccc(-c2cnc3c(Nc4ccc(C(=O)N(CCC#N)CCCCNCCC#N)c(C)c4)nccn23)cc1F
Q: Cc1cc(Nc2nccn3c(-c4ccc(OC(F)F)cc4)cnc23)ccc1C(=O)N(C)CCOCCN [Example 136, hydrochloride]
q: Kindly identify the item with the lower IC90 figure among these two: P and Q Refer to your chosen item by its label in the answer.
a: Q

A: COc1ccc(-c2cnc3c(Nc4ccc(C(=O)NCCOCCNC(=O)CO)c(C)c4)nccn23)cc1
B: N#CCOc1ccc(-c2cnc3c(Nc4ccc(C(=O)NCCOCCN5CCNC(C(=O)O)C5)c(Cl)c4)nccn23)c(F)c1F (stereo not shown)
q: Kindly identify the item with the lower IC90 figure among these two: A and B Refer to your chosen item by its label in the answer.
a: A
(A: 1300 nM, B: 2300 nM)
